Origin of values: paper PMC11539244

Measured IC50 values are reported for all entries that follow.
biological target: DHA-1 (Morganella morganii); assay: IC50 of β-lactamase inhibitors, crude extract, DHA-1; format: biochemical; conditions: DHA-1; crude extract of E. coli TOP10 recombinant strain; mean of triplicate; read-out: IC50
measurement label: IC50 (µM)

NCCN[C@H]1CC[C@H](CC(=O)N[C@H]2Cc3cccc(C(=O)O)c3OB2O)CC1    0.12
Cn1cc[n+](C[C@@]2(C)[C@H](C(=O)[O-])N3C(=O)C[C@H]3S2(=O)=O)n1    26

###

molecular target: CMY-42 (Klebsiella pneumoniae, UniProt Q48434, V231S); construct: made in house; host or cells: E. coli TOP10, plasmid pUCp24; experiment: biochemical; design: species or system Citrobacter spp.
Sequence (Q48434 21-381 V231S): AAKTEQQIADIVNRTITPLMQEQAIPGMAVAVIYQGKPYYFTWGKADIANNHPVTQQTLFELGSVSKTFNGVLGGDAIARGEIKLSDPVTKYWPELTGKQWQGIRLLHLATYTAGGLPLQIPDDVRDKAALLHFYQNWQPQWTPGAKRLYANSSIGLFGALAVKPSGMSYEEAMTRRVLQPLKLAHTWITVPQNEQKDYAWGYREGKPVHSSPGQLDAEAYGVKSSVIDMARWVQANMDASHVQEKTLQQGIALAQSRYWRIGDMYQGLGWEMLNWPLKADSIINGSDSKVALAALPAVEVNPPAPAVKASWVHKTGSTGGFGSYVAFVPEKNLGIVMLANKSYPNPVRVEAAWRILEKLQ
Entries and their IC50 values follow.
measurement label: IC50 (nM)

CC1=C[C@@H]2CN(C(=O)N2OS(=O)(=O)O)[C@@H]1C(N)=O    11
O=C(O)c1c(F)ccc2c1OB(O)[C@@H]1C[C@H]21    430
O=C(O)C[C@@H]1CC[C@H](NC(=O)Cc2cccs2)B(O)O1    13000
NC(=O)[C@@H]1CC[C@@H]2CN1C(=O)N2OS(=O)(=O)O    650
O=C(NNC(=O)[C@@H]1CC[C@@H]2CN1C(=O)N2OS(=O)(=O)O)[C@@H]1CCCNC1    170
C[C@]1(Cn2ccnn2)[C@H](C(=O)O)N2C(=O)C[C@H]2S1(=O)=O    24000
O=C(NC1CCNCC1)[C@@H]1CC[C@@H]2CN1C(=O)N2OS(=O)(=O)O    1100
NCCONC(=O)[C@@H]1CC[C@@H]2CN1C(=O)N2OS(=O)(=O)O    1700

###

target: ACC-1 (Hafnia alvei, UniProt Q9XB24); test: IC50 of β-lactamase inhibitors, crude extract, ACC-1; assay type: biochemical
Sequence (Q9XB24 entry or part of it): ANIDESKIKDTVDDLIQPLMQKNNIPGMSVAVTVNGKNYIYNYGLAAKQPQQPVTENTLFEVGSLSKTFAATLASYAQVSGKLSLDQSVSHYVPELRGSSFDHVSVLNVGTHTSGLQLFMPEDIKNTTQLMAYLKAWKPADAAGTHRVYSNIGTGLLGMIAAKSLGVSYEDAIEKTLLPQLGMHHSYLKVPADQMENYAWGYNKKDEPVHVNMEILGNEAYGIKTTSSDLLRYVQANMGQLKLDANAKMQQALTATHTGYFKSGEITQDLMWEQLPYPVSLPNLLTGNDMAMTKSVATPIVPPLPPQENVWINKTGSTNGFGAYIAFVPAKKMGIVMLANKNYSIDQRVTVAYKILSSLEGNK
Lab note - cut at 600 nM for IC50: satisfied if strictly below, not satisfied if not.

O=C(NC1CCNCC1)[C@@H]1CC[C@@H]2CN1C(=O)N2OS(=O)(=O)O    satisfied
CC1=C[C@@H]2CN(C(=O)N2OS(=O)(=O)O)[C@@H]1C(N)=O    satisfied
O=C(NNC(=O)[C@@H]1CC[C@@H]2CN1C(=O)N2OS(=O)(=O)O)[C@@H]1CCCNC1    satisfied
NCCONC(=O)[C@@H]1CC[C@@H]2CN1C(=O)N2OS(=O)(=O)O    satisfied
O=C(O)c1c(F)ccc2c1OB(O)[C@@H]1C[C@H]21    satisfied
O=C(O)C[C@@H]1CC[C@H](NC(=O)Cc2cccs2)B(O)O1    not satisfied
NC(=O)[C@@H]1CC[C@@H]2CN1C(=O)N2OS(=O)(=O)O    satisfied
O=C(O)[C@H]1/C(=C/CO)O[C@@H]2CC(=O)N21    not satisfied
C[C@]1(Cn2ccnn2)[C@H](C(=O)O)N2C(=O)C[C@H]2S1(=O)=O    not satisfied

###

target: UniProt:Q48443; experiment: biochemical
Sequence (Q48443 entry or part of it): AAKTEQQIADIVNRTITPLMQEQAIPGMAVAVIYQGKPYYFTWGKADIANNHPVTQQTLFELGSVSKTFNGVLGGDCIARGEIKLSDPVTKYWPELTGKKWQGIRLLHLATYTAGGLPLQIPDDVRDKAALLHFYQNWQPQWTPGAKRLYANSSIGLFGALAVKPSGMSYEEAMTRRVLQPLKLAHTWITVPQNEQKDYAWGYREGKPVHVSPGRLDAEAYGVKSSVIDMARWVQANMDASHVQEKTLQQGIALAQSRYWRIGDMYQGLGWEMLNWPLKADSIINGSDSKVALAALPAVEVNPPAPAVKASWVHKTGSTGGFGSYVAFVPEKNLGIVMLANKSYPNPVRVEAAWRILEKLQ
pIC50: −log10 of the molar value.
In this section we review reported pIC50 values for a set of compounds.
measurement label: pIC50

C[C@]1(Cn2ccnn2)[C@H](C(=O)O)N2C(=O)C[C@H]2S1(=O)=O    5.14
O=C(O)C[C@@H]1CC[C@H](NC(=O)Cc2cccs2)B(O)O1    5.92
CC1=C[C@@H]2CN(C(=O)N2OS(=O)(=O)O)[C@@H]1C(N)=O    8.30
O=C(O)c1c(F)ccc2c1OB(O)[C@@H]1C[C@H]21    6.47
O=C(NNC(=O)[C@@H]1CC[C@@H]2CN1C(=O)N2OS(=O)(=O)O)[C@@H]1CCCNC1    8.30
NCCONC(=O)[C@@H]1CC[C@@H]2CN1C(=O)N2OS(=O)(=O)O    6.54
O=C(NC1CCNCC1)[C@@H]1CC[C@@H]2CN1C(=O)N2OS(=O)(=O)O    6.64
NC(=O)[C@@H]1CC[C@@H]2CN1C(=O)N2OS(=O)(=O)O    6.40
